# measuredTarget: human PDE2A1 (Homo sapiens (Human))
# Sequence (O00408 other isoform, or with tags, fused parts or gaps): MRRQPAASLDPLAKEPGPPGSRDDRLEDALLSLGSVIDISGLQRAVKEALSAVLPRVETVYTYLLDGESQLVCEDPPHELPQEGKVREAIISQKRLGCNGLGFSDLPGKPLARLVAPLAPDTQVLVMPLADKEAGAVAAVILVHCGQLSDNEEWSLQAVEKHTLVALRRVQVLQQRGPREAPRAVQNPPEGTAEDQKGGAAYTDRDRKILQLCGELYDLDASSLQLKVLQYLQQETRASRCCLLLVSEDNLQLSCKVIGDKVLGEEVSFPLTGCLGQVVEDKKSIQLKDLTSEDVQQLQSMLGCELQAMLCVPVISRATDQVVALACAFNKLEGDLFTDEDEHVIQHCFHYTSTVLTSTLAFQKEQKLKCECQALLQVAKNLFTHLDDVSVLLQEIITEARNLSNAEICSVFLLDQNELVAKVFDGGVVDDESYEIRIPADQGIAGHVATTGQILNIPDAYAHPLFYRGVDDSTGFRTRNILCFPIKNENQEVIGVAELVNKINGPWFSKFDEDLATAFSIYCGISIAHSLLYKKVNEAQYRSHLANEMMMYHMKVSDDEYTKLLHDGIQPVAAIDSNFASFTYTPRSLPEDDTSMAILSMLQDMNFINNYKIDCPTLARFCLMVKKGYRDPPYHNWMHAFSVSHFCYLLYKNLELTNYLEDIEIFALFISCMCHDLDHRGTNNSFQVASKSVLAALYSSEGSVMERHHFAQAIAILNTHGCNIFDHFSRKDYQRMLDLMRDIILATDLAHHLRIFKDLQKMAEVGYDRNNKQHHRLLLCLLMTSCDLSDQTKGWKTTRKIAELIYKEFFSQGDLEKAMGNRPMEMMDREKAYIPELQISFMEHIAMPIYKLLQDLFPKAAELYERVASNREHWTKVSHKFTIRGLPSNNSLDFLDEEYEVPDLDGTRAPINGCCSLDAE
Each record is given Met if its reported Ki is strictly below 30 nM. Records at or above 30 nM are given Not met.

Given CCc1ccc(C(C)n2cc(-c3cc(=O)[nH]c(C)n3)nn2)c(Cl)c1 (single isomer, unassigned) [Example 20] , is recorded Ki strictly lower than 30 nM?
Not met

Criterion: Ki strictly below 30 nM. Is it met by Cc1nc(-c2nnc(C(C)c3ccc(C(F)(F)F)cc3Cl)[nH]2)cc(=O)[nH]1 (single isomer, unassigned) [Example 65] ?
Met

Criterion: Ki strictly below 30 nM. Is it met by Cc1nc(-c2nnn3c2CCC[C@H]3c2ccc(C(F)(F)F)cc2)cc(=O)[nH]1 (single isomer, unassigned) ?
Not met

Please indicate whether the reported Ki of CCCCc1c(-c2cc(=O)[nH]c(C)n2)nnn1C(C)c1ccc(C(F)(F)F)cc1Cl (single isomer, unassigned) is strictly below 30 nM.
Met

In plain terms, does CCC1(c2ccc(C(F)(F)F)cc2)CCCc2c(-c3cc(=O)[nH]c(C)n3)nnn21 (single isomer, unassigned) come in under 30 nM for Ki?
Met
